experimental_details: qHTS Assay to Identify Small Molecule Activators of BRCA1 Expression; further: nearly all actives have a fitted effect of over 80% in size
condition_details: MCF7-BRCA1-FFLuc reporter, luminescence, 48 h; series mostly up to 46.1 µM
About 4,000 (1.1%) of roughly 380,000 compounds were called active. About 3% were inconclusive and are not listed. The call rests on the fitted dose curve; in most records, active means well fitted activation curve with a large enough effect; inconclusive means small, poorly fitted or top-dose-only effect; inactive means no such curve, though single readings can be large or run the other way. What follows is part of a selection rich in actives, with near analogues and random picks from the rest.
Respond only with the outcome that fits, drawn from active, inactive

1. Cc1cc(C)cc(NC(=O)CSc2ccccc2)c1 ... inactive
2. C/C(=N\NC(=S)Nc1ccc(C)cc1)c1cc2ccccc2o1 ... inactive
3. COc1cccc(C(=O)c2sc3nc(-c4ccccc4)cc(C(F)(F)F)c3c2N)c1 ... inactive
4. CCN(CC)C(=O)CSc1nnc(-c2ccc(S(=O)(=O)NCc3ccccc3Cl)cc2)o1 ... inactive
5. COc1ccccc1N1CCN(C(=O)C2CCN(S(=O)(=O)c3c(C)noc3/C=C/c3ccc(C)cc3)CC2)CC1 ... inactive

Per the assay record, what outcome was assigned to CCCNC(=O)c1c(Cl)cnn1-c1ccc(C)cc1 ?
active

Per the assay record, what outcome was assigned to O=C(NCc1ccccc1Cl)C1CCCO1 (configuration not stated) ?
inactive

Per the assay record, what outcome was assigned to C/C=C/NNC(=O)Cc1ccc(OC)cc1 ?
inactive

###

experimental_details: qHTS Assay to Identify Small Molecule Activators of BRCA1 Expression; further: nearly all actives have a fitted effect of over 80% in size
condition_details: MCF7-BRCA1-FFLuc reporter, luminescence, 48 h; series mostly up to 46.1 µM
The campaign covered roughly 380,000 compounds. About 4,000 (1.1%) were called active. Roughly 3% stayed inconclusive and do not appear here. Calls come from the whole dose curve; as a rule, active = well fitted activation curve with a large enough effect; inconclusive = small, poorly fitted or top-dose-only effect; inactive = no such curve, though single readings can be large or run the other way. Only a selection was taken, and actives are over-represented in it overall.
Respond only with the outcome that fits, drawn from active, inactive

Per the assay record, what outcome was assigned to Cc1cnc(C(=O)OCC(=O)N2CCc3ccccc32)cn1 ?
inactive

Per the assay record, what outcome was assigned to CN(C(=O)c1ccccn1)c1nnc(-c2ccccn2)s1 ?
active

Per the assay record, what outcome was assigned to Cc1cc(/C=C2/SC(=O)N(CC(=O)OC(C)C)C2=O)c(C)n1C ?
active

Per the assay record, what outcome was assigned to CCC(=O)N1N=C(c2ccc(OC)cc2)CC1c1cn(-c2ccccc2)nc1-c1cccs1 (stereo unspecified) ?
inactive

Per the assay record, what outcome was assigned to CCS(=O)(=O)n1nc(-c2ccc(OC)cc2)nc1SC ?
inactive

Per the assay record, what outcome was assigned to C=CCNC(=O)c1ccc2nc(-c3ccco3)c(-c3ccco3)nc2c1 ?
inactive

Per the assay record, what outcome was assigned to COc1ccc(C(=O)Nc2ccc(F)cc2F)cc1 ?
active

###

experimental_details: qHTS Assay to Identify Small Molecule Activators of BRCA1 Expression; further: nearly all actives have a fitted effect of over 80% in size
condition_details: MCF7-BRCA1-FFLuc reporter, luminescence, 48 h; series mostly up to 46.1 µM
Screen size: about 380,000 compounds; about 4,000 (1.1%) were called active. Another 3% or so got no clear call; they are omitted. The call rests on the fitted dose curve; in most records, active means well fitted activation curve with a large enough effect; inconclusive means small, poorly fitted or top-dose-only effect; inactive means no such curve, though single readings can be large or run the other way. The sample as a whole holds a higher share of actives than the screen did.
Respond only with the outcome that fits, drawn from active, inactive

The following compounds have reported results that may help.
1. CSCCC(NC(=O)c1ccco1)C(=O)Nc1cc(C)ccn1 (stereo not drawn) ... inactive
2. COc1cc(CN2CCC(C(N)=O)CC2)ccc1OCc1ccccc1 ... active
3. Oc1ccc(Br)cc1C1C=C(c2ccc3c(c2)OCO3)NC(c2ccc(Cl)cc2)N1 (stereo not drawn) ... inactive
4. O=C(CCn1c(=O)c2ccccc2n(Cc2ccc(Cl)cc2)c1=O)NCc1ccc2c(c1)OCO2 ... inactive
5. COc1cccc(CNC(=O)C(NS(=O)(=O)c2ccc3nc(C)sc3c2)C(C)C)c1 (stereo not drawn) ... inactive

Per the assay record, what outcome was assigned to COc1ccccc1-c1cc2nc(C)c(CCC(=O)NC3CCCCC3)c(C)n2n1 ?
inactive

Per the assay record, what outcome was assigned to COc1cccc(OCc2cc(C(=O)N3CCN(C(=O)c4ccco4)CC3)no2)c1 ?
active

Per the assay record, what outcome was assigned to Cc1ccc(OCC(=O)OCc2cc(=O)n3nc(C4CC4)sc3n2)cc1 ?
inactive

Per the assay record, what outcome was assigned to C[N+]1(CC(=O)c2cccs2)CCOCC1 ?
inactive

Per the assay record, what outcome was assigned to O=C(Cn1c(=O)n(-c2ccc(F)cc2)c(=O)c2sc3ccccc3c21)NC1CCCC1 ?
inactive

###

experimental_details: qHTS Assay to Identify Small Molecule Activators of BRCA1 Expression; further: nearly all actives have a fitted effect of over 80% in size
condition_details: MCF7-BRCA1-FFLuc reporter, luminescence, 48 h; series mostly up to 46.1 µM
About 4,000 (1.1%) of roughly 380,000 compounds were called active. Inconclusive results (about 3%) are left out. Calls follow the shape of the dose curve; as a rule, active = well fitted activation curve with a large enough effect; inconclusive = small, poorly fitted or top-dose-only effect; inactive = no such curve, though single readings can be large or run the other way. The list comes from a sample in which actives are over-represented; it also holds close analogues and randomly drawn compounds.
Respond only with the outcome that fits, drawn from active, inactive

The following molecules have reported results that may help.
1. CCN(C(=O)c1sc2cc(OC)ccc2c1Cl)c1ccccc1 ... inactive
2. O=C(NCC12CC3CC(CC(C3)C1)C2)c1cc2nc(-c3ccccc3)cc(C(F)(F)F)n2n1 ... inactive

Per the assay record, what outcome was assigned to Cc1ccc(CSc2nnc(-c3cnccn3)n2C)cc1 ?
inactive

Per the assay record, what outcome was assigned to CC(=O)Nc1ccc(S(=O)(=O)N2CCN(c3ccccc3)CC2)cc1 ?
inactive

Per the assay record, what outcome was assigned to COc1ccc(-n2cnc3cc(NCc4ccco4)ccc32)cc1 ?
active

Per the assay record, what outcome was assigned to O=C(NCCCn1ccnc1)c1cc2c(s1)CCCC2 ?
inactive

Per the assay record, what outcome was assigned to O=C(O)c1cccnc1NC1CCCC1 ?
inactive

Per the assay record, what outcome was assigned to Cc1cccc(C)c1NC(=O)CNC(=O)Cc1ccc(Br)cc1 ?
inactive

Per the assay record, what outcome was assigned to COc1ccc(/C=C/c2ccccn2)cc1OC ?
inactive

###

experimental_details: qHTS Assay to Identify Small Molecule Activators of BRCA1 Expression; further: nearly all actives have a fitted effect of over 80% in size
condition_details: MCF7-BRCA1-FFLuc reporter, luminescence, 48 h; series mostly up to 46.1 µM
Source text: Functionally, BRCA1 has been implicated in a wide array of cellular activities, including DNA damage repair, cell-cycle checkpoint control, growth inhibition, apoptosis, transcriptional regulation, chromatin remodeling, protein ubiquitylation, and mammary stem cell self-renewal and differentiation. […]
Out of some 380,000 compounds screened, about 4,000 (1.1%) were called active. Another 3% or so got no clear call; they are omitted. Calls follow the shape of the dose curve; as a rule, active = well fitted activation curve with a large enough effect; inconclusive = small, poorly fitted or top-dose-only effect; inactive = no such curve, though single readings can be large or run the other way. Only a selection was taken, and actives are over-represented in it overall.
Respond only with the outcome that fits, drawn from active, inactive

1. CCCOC1CCCN(C(=O)c2cc(COc3cncc(Cl)c3)on2)C1 (stereo unspecified) ... active
2. CCOc1ccc(CCNC(=O)CN(c2ccc(C)cc2)S(=O)(=O)N(C)C)cc1OCC ... inactive
3. O=C(CN1CCSCC1)N/N=C/c1ccc(F)cc1 ... inactive

Per the assay record, what outcome was assigned to CCCN(CCC)C(=O)Cn1c(=O)n(-c2ccc(Cl)cc2)c(=O)c2c3c(sc21)CCCCC3 ?
inactive

###

experimental_details: qHTS Assay to Identify Small Molecule Activators of BRCA1 Expression; further: nearly all actives have a fitted effect of over 80% in size
condition_details: MCF7-BRCA1-FFLuc reporter, luminescence, 48 h; series mostly up to 46.1 µM
The campaign covered roughly 380,000 compounds. About 4,000 (1.1%) were called active. Inconclusive results (about 3%) are left out. Calls come from the whole dose curve; as a rule, active = well fitted activation curve with a large enough effect; inconclusive = small, poorly fitted or top-dose-only effect; inactive = no such curve, though single readings can be large or run the other way. For the sample, actives were picked, then their nearest neighbours and some compounds at random.
Respond only with the outcome that fits, drawn from Y = active, N = inactive

The following molecules have reported results that may help.
1) COc1ccc(-c2nc(=N)sn2-c2ccccc2)cc1 ... N
2) S=C(Nc1ccc(Cl)cc1Cl)N1CCCC1 ... N
3) O=C(CSc1ccccc1)Nc1ccc(NC(=O)c2ccco2)cc1 ... Y
4) O=C(Nc1ccccc1C(=O)N1CCCCC1)c1ccco1 ... N
5) CCN(CC)C(=O)c1nc[nH]c1C(=O)N(C)Cc1ccccc1 ... N
6) OC[C@@H]1O[C@H](n2cnc3c(SCc4ccccc4)ncnc32)[C@H](O)[C@H]1O ... N
7) CC(=O)c1ccc(NC(=O)c2nc(-c3ccc(C)cc3)n3c2CCCCC3)cc1 ... N
8) O=C(c1cccc(Cl)c1)N1CCN(CCc2ccncc2)CC1 ... N
9) Cc1ccccc1CCNC(=O)C1CCN(c2nc3ccccc3nc2C(F)(F)F)CC1 ... N
10) CCN1C(=O)/C(=C2\SC(N3CCCCC3)=NC2=O)c2ccccc21 ... Y

Per the assay record, what outcome was assigned to O=C(NC(=S)Nc1ccc(Cl)cc1Cl)C1CC1 ?
Y

Per the assay record, what outcome was assigned to O=C(Nc1ccccc1)c1ccccc1OCc1ccccc1 ?
N

Per the assay record, what outcome was assigned to CCN(CC)C(=O)c1sc2nc(-c3ccccc3)ccc2c1N ?
Y

Per the assay record, what outcome was assigned to O=C(C1CCCN(S(=O)(=O)c2cccc3nonc23)C1)N1CCN(c2ccccc2F)CC1 (centres undefined) ?
N

Per the assay record, what outcome was assigned to O=C(Nc1ccc(C(=O)NCc2ccccc2Cl)cc1)C1=CSCCO1 ?
Y

Origin of values: PubChem BioAssay AID624202
